- Assay Summary: Cytotoxicity against human U87MG cells assessed as reduction in cell viability after 24 hrs by MTT assay
- Format: functional, cell-based, U-87MG ATCC
- Setup Conditions: U-87 MG
Observable: IC50

# IC50 (compound: CC(C)=CCc1c(-c2ccc(O)cc2O)oc2c3c(cc(O)c2c1=O)OC(C)(C)C=C3 ) is 24 µM

====

- Assay Summary: Cytotoxicity against human U138MG cells assessed as reduction in cell viability after 24 hrs by MTT assay
- Type: functional, cell-based
- Setup Conditions: U138-MG
Observable: IC50 (µM)
Numbers only, in µM.

# IC50 (molecule: CC(C)=CCc1c(-c2ccc(O)cc2O)oc2c3c(cc(O)c2c1=O)OC(C)(C)C=C3 ) is 24
